Please provide measured OD 450 nm for the entries that follow.
Molecular target: T1, cTnI quality control product recombinant protein (human, UniProt P19429 1-210, limits assumed)
T1 construct: the assay paragraphs only say cTnI; also called cardiac troponin I; cTnI antigen
T1 sequence (P19429 whole entry): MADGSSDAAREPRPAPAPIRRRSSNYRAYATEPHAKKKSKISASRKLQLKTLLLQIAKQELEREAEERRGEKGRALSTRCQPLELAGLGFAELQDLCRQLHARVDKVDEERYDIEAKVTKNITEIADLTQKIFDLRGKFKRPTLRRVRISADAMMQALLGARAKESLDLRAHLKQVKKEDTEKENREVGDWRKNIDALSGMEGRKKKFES
Test: capture ELISA, antibody 333.333 ng/ml, cTnI 0.15 ug/ml
One number for each entry, in OD.

List the reported OD 450 nm of each binder below.
1. Mutation 3 (antibody, V domains shown, other CDR sites as WT) VH: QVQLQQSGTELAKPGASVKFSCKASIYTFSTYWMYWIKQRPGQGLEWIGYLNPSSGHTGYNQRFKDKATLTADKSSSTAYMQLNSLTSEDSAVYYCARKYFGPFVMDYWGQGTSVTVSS VL: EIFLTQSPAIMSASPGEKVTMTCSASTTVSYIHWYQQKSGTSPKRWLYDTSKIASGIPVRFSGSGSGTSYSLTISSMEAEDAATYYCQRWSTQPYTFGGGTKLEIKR
2. Anti-cTnI 7B9 monoclonal antibody (recombinant, Sample 1) (antibody, mouse IgG1, kappa, V domains shown, Recombinant mouse antibody expressed in CHO cells; also called WT; Anti-cTnI 7B9 antibody) VH: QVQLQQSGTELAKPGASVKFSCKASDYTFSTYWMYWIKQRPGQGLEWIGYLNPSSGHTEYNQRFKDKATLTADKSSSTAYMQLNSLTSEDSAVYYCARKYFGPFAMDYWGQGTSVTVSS VL: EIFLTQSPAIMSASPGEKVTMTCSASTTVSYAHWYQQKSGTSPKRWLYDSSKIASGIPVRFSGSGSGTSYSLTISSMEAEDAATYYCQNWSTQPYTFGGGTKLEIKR
3. Mutation 5 (antibody, V domains shown, other CDR sites as WT) VH: QVQLQQSGTELAKPGASVKFSCKASWYTFSTYWMYWIKQRPGQGLEWIGYLNPSSGHTVYNQRFKDKATLTADKSSSTAYMQLNSLTSEDSAVYYCARKYFGPFSMDYWGQGTSVTVSS VL: EIFLTQSPAIMSASPGEKVTMTCSASTTVSYSHWYQQKSGTSPKRWLYDYSKIASGIPVRFSGSGSGTSYSLTISSMEAEDAATYYCQEWSTQPYTFGGGTKLEIKR

A:
[2.11, 2.01, 0.514]
